Values from patent US9428492B2

target: human PDE10A2 (Homo sapiens (Human), UniProt Q9Y233); experiment: PDE10 fluorescence polarization (IMAP FP) inhibition assay; type: biochemical; conditions: read-out: PDE10a Ki
Sequence (Q9Y233 267-1055): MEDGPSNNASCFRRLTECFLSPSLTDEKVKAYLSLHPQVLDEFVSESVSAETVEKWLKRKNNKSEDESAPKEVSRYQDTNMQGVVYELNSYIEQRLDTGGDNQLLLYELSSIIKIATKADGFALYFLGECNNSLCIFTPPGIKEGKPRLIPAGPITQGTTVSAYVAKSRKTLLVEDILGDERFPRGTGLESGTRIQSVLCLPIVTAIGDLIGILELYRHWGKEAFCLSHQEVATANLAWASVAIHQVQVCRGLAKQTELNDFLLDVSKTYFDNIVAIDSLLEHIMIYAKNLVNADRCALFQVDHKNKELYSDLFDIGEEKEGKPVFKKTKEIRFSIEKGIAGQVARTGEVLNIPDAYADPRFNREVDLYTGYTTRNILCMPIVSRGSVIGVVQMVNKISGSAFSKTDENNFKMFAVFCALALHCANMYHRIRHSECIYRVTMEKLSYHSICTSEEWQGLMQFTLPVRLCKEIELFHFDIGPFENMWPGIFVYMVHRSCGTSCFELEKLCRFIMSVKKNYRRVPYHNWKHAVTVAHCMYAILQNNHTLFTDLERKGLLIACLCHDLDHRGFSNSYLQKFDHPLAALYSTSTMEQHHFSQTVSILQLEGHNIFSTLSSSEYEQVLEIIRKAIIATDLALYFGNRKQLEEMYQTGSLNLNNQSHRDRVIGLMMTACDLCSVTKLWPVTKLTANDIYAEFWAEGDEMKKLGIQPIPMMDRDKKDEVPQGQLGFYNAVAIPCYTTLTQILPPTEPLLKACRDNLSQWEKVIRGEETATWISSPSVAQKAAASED
pKi: −log10 of the molar value.
metric_name: pKi

compound	pKi
Cc1nc(N2CC(c3nc4ccccc4n3C)C2)cc(-n2nc(C)nc2C(O)C(F)F)n1 (single isomer, unassigned) [Example 11a]	9.19
CCC(O)c1nc(C)nn1-c1cc(N2CC(c3nc4ccccc4n3C)C2)nc(C)n1 (stereo not shown) [Example 4]	9.29
Cc1nc(C(C)O)n(-c2cc(N3CC(c4nc5ccccc5n4C)C3)nc(C3CC3)n2)n1 (single isomer, unassigned) [Example 10a]	9.89
Cc1nc(N2CC(c3nc4ccccc4n3C)C2)cc(-n2nc(C)nc2C(O)C2CC2)n1 (stereo not shown) [Example 6]	9.44
Cc1nc(N2CC(c3nc4ccccc4n3C)C2)cc(-n2nc(C)nc2C(O)C(F)(F)F)n1 (racemic) [Example 3]	9.96

[A] Cc1nc(N2CC(c3nc4ccccc4n3C)C2)cc(-n2nc(C)nc2C(O)C(F)(F)F)n1 (single isomer, unassigned) [Example 3a]
[B] Cc1nc([C@H](C)O)n(-c2cc([C@@H]3C[C@H]3c3nc4ccccc4n3C)nc(C(F)(F)F)n2)n1 [Example 17]
stdin: Could you kindly indicate whether A or B has the higher pKi value? // caller expects the label of the chosen entry
stdout: A
(A: 9.00, B: 8.55)

###

target: human PDE10A2 (Homo sapiens (Human)); assay: PDE10 fluorescence polarization (IMAP FP) inhibition assay; type: biochemical; settings: read-out: PDE10a Ki
metric_name: Ki (nM)

Guide cases for Ki, answers given:
compound	Ki, nM
Cc1nc(N2CC(c3nc4ccccc4n3C)C2)cc(-n2nc(C)nc2C(O)C(C)C)n1 (single isomer, unassigned) [Example 5b]	0.77
Cc1nc(C(C)O)n(-c2cc(N3CC(c4nc5ccccc5n4C)C3)nc(C3CC3)n2)n1 (stereo not shown) [Example 10]	0.21
Cc1nc([C@@H]2C[C@H]2c2nc3ccccc3n2C)cc(-n2nc(C)nc2[C@H](C)O)n1	0.74

[a] Cc1nc(N2CC(c3nc4ccccc4n3C)C2)cc(-n2nc(C)nc2C(O)C2CC2)n1 (single isomer, unassigned) [Example 6b]
[b] Cc1nc([C@@H]2C[C@H]2c2nc3ccccc3n2C)cc(-n2nc(C)nc2[C@@H](C)O)n1
[c] Cc1nc(C(C)O)n(-c2cc(N3CC(c4nc5ccccc5n4C)C3)nc(C(F)(F)F)n2)n1 (single isomer, unassigned) [Example 8a]
[d] CCC(O)c1nc(C)nn1-c1cc(N2CC(c3nc4ccccc4n3C)C2)nc(C)n1 (single isomer, unassigned) [Example 4a]
stdin: Ascending sort, Ki. Put the labels in the requested order and list them out.
stdout: c, b, d, a

###

target: human PDE10A2 (Homo sapiens (Human), UniProt Q9Y233); assay: PDE10 fluorescence polarization (IMAP FP) inhibition assay; assay type: biochemical; details: read-out: PDE10a Ki
pKi: −log10 of the molar value.
metric_name: pKi

[I] Cc1nc(C2C[C@H]2c2nc3ccccc3n2C)cc(-n2nc(C)nc2C(O)C(F)(F)F)n1 (single isomer, unassigned) [Example 20b]
[II] Cc1nc(N2CC(c3nc4ccccc4n3C)C2)cc(-n2nc(C)nc2C(O)C(F)(F)F)n1 (single isomer, unassigned) [Example 3b]
[III] Cc1nc(N2CC(c3nc4ccccc4n3C)C2)cc(-n2nc(C)nc2C(O)CC(F)(F)F)n1 (single isomer, unassigned) [Example 7a]
stdin: Arrange these 3 compounds in increasing order of pKi. Put the labels in the requested order and list them out.
stdout: III, I, II
(III: 8.35, I: 9.04, II: 10.22)

[I] Cc1nc(N2CC(c3nc4ccccc4n3C)C2)cc(-n2nc(C)nc2[C@@H](C)O)n1 [Example 2]
[II] Cc1nc(N2CC(c3nc4ccccc4n3C)C2)cc(-n2nc(C)nc2C(O)CC(F)(F)F)n1 (stereo not shown) [Example 7]
[III] Cc1nc(C2C[C@H]2c2nc3ccccc3n2C)cc(-n2nc(C)nc2C(O)C(F)(F)F)n1 (single isomer, unassigned) [Example 20a]
stdin: Please list the entries, largest pKi first. Put the labels in the requested order and list them out.
stdout: III, I, II
(III: 9.24, I: 8.92, II: 8.49)
